System: RFL-6
Experiment: Ratio of inhibitory constant against cone phosphodiesterase 6 and phosphodiesterase 5 in rat fetal lung fibroblast (RFL-6) cells
Assay type: cell-based
measuredParameter: Selectivity
Answer as a number with no unit attached.

INPUT: Name the recorded Selectivity for Oc1c2c(nc3ccccc13)C(c1ccc3c(c1)CCO3)N(c1ccc(-n3ccnc3)cc1)C2 (centres undefined) .
OUTPUT: 1840

INPUT: Name the recorded Selectivity for Oc1c2c(nc3ccccc13)C(c1ccc3c(c1)CCO3)N(c1ccc(-c3cncn3Cc3ccccc3)cn1)C2 (centres undefined) .
OUTPUT: 68.9

INPUT: Name the recorded Selectivity for Oc1c2c(nc3ccccc13)[C@@H](c1ccc3c(c1)CCO3)N(c1ccccn1)C2 .
OUTPUT: 106

INPUT: Name the recorded Selectivity for Cc1ncc(-c2cnc(N3Cc4c(nc5ccccc5c4O)C3c3ccc4c(c3)CCO4)nc2)n1Cc1ccccc1 (centres undefined) .
OUTPUT: 359
